system: HNSC; experiment: growth inhibition (% activity, log2 RLU normalised to DMSO / staurosporine); higher = more growth inhibition; conditions: 33 µM
Parameter: growth inhibition (%)
Just the number in %, nothing appended.

*Q* growth inhibition lookup needed for O=C(CCCN1CCC(O)(c2ccc(Cl)cc2)CC1)c1ccc(F)cc1 , thanks.
*A* 2.33

* * *

In this section, each of the compounds is paired with its reported growth inhibition.
test system: DIPGX9 (diffuse intrinsic pontine glioma line); assay: growth inhibition (% activity, log2 RLU normalised to DMSO / staurosporine); higher = more growth inhibition; settings: 33 µM
Just the number in %, nothing appended.

// solved cases for growth inhibition follow
Nc1nc(Cl)nc2c1ncn2[C@H]1C[C@H](O)[C@@H](CO)O1    39.6
CC(C)(C)c1ccc(C(O)CCCN2CCC(C(O)(c3ccccc3)c3ccccc3)CC2)cc1 (configuration not stated)    0.591
Cc1cn([C@H]2C[C@H](N=[N+]=[N-])[C@@H](CO)O2)c(=O)[nH]c1=O    3.46

*Q* growth inhibition lookup needed for CN/C(=N\CCSCc1nc[nH]c1C)NC#N , thanks.
*A* 0.766

*Q* Next: CCCCCCCCCCCCCCCCCCCCCCO
*A* 0.0399

*Q* Next: Cc1c(Nc2ncccc2C(=O)O)cccc1C(F)(F)F
*A* 1.64

*Q* Next: CCCCCCOC(=O)NC(=N)c1ccc(NCc2nc3cc(C(=O)N(CCC(=O)OCC)c4ccccn4)ccc3n2C)cc1
*A* 1.32

* * *

tested on: DIPGX29 (H3.3 K27M diffuse intrinsic pontine glioma line); assay: growth inhibition (% activity, log2 RLU normalised to DMSO / staurosporine); higher = more growth inhibition; conditions: 33 µM
Parameter: growth inhibition (%)
Just the number in %, nothing appended.

// solved cases for growth inhibition follow
CC(C)C(=O)Nc1ccc([N+](=O)[O-])c(C(F)(F)F)c1    1.6
COc1ccc2c(c1)c(CC(=O)OCC(=O)O)c(C)n2C(=O)c1ccc(Cl)cc1    4.7

Now, please, on to the next compound.
*Q* growth inhibition lookup needed for O=C1CC[C@@H](C(=O)N2CSC[C@H]2C(=O)O)N1 , thanks.
*A* 2.29

* * *

In this section, each of the compounds is paired with its reported growth inhibition.
test system: DIPGX7 (H3.3 K27M diffuse intrinsic pontine glioma line); experiment: growth inhibition (% activity, log2 RLU normalised to DMSO / staurosporine); higher = more growth inhibition; settings: 33 µM
Just the number in %, nothing appended.

// solved cases for growth inhibition follow
N#Cc1c(N(CC(=O)O)CC(=O)O)sc(C(=O)O)c1CC(=O)O    -0.504
CCN1CCN(c2cc(-c3ccc(F)cc3)c3c(n2)CCCCCC3)CC1    21.9
Cc1ccc(C(=O)c2ccc(CC(=O)O)n2C)cc1    0.146
Cc1onc(-c2c(Cl)cccc2Cl)c1C(=O)N[C@@H]1C(=O)N2[C@@H]1SC(C)(C)[C@@H]2C(=O)O    0.879
CCOc1ccc2nc3cc(N)ccc3c(N)c2c1    2.68

*Q* growth inhibition lookup needed for NC[C@H]1CC[C@H](C(=O)O)CC1 , thanks.
*A* 0.868

*Q* Next: CC1(C)O[C@@H]2C[C@H]3[C@@H]4C[C@H](F)C5=CC(=O)C=C[C@]5(C)[C@@]4(F)[C@@H](O)C[C@]3(C)[C@]2(C(=O)CO)O1
*A* 2.96

*Q* Next: NC(=O)C(c1ccccc1)(c1ccccc1)[C@@H]1CCN(CCc2ccc3c(c2)CCO3)C1
*A* 0.954

*Q* Next: O=C(Nc1ccc([N+](=O)[O-])cc1Cl)c1cc(Cl)ccc1O
*A* 24.1

*Q* Next: OCCN1C[C@H](O)[C@@H](O)[C@H](O)[C@H]1CO
*A* 3.33

*Q* Next: CC(C)(C)c1nc(-c2cccc(NS(=O)(=O)c3c(F)cccc3F)c2F)c(-c2ccnc(N)n2)s1
*A* 2.8

*Q* Next: CC1(C)O[C@@H]2C[C@H]3[C@@H]4CCC5=CC(=O)C=C[C@]5(C)[C@H]4[C@@H](O)C[C@]3(C)[C@]2(C(=O)CO)O1
*A* -0.564

*Q* Next: CCN(CC)CCNC(=O)c1c(C)[nH]c(/C=C2\C(=O)Nc3ccc(F)cc32)c1C
*A* 11.1

*Q* Next: CN(C(=O)CN(CCO)CC(=O)N(C)C(C)(C)Cc1ccccc1)C(C)(C)Cc1ccccc1
*A* 29

*Q* Next: CCC(=O)O[C@]1(C(=O)CCl)[C@@H](C)C[C@H]2[C@@H]3C[C@H](F)C4=CC(=O)C=C[C@]4(C)[C@@]3(F)[C@@H](O)C[C@@]21C
*A* 1.18

*Q* Next: CC(C)(C)NC(=O)[C@H]1CC[C@H]2[C@@H]3CC[C@H]4NC(=O)C=C[C@]4(C)[C@H]3CC[C@]12C
*A* 2.69

*Q* Next: CO/N=C(\C(=O)N[C@@H]1C(=O)N2C(C(=O)OCOC(=O)C(C)(C)C)=C(/C=C\c3scnc3C)CS[C@H]12)c1csc(N)n1
*A* 0.192

*Q* Next: O.O=[Si]=O.O=[Si]=O.O=[Si]=O.O=[Si]=O.[O]=[Mg].[O]=[Mg].[O]=[Mg]
*A* -1.3

*Q* Next: COc1c(C)c2c(c(O)c1C/C=C(\C)CCC(=O)OCCN1CCOCC1)C(=O)OC2
*A* 10.6

*Q* Next: Nc1ccc(/N=N/c2ccccc2)c(N)n1
*A* 0.481

*Q* Next: Cc1cn(-c2cc(NC(=O)c3ccc(C)c(Nc4nccc(-c5cccnc5)n4)c3)cc(C(F)(F)F)c2)cn1
*A* 4.89

*Q* Next: Cc1onc(-c2ccccc2)c1-c1ccc(S(N)(=O)=O)cc1
*A* 0.883

*Q* Next: OC(CCN1CCCCC1)(c1ccccc1)C1CC2C=CC1C2 (stereo not drawn)
*A* 1.09

*Q* Next: O=C(Nc1ccccc1)c1ccccc1O
*A* 0.467

*Q* Next: C[C@@H](NCCCc1cccc(C(F)(F)F)c1)c1cccc2ccccc12
*A* 6.24

* * *

tested on: SUDIPGXIII (diffuse intrinsic pontine glioma line); test: growth inhibition (% activity, log2 RLU normalised to DMSO / staurosporine); higher = more growth inhibition; settings: 33 µM
In this section, each of the molecules is paired with its reported growth inhibition.
Just the number in %, nothing appended.

// solved cases for growth inhibition follow
Cn1cnc([N+](=O)[O-])c1Sc1ncnc2[nH]cnc12    17.1
CCCCc1oc2ccc(NS(C)(=O)=O)cc2c1C(=O)c1ccc(OCCCN(CCCC)CCCC)cc1    24.1
CC(NCCc1ccc(O)cc1)C(O)c1ccc(O)cc1 (stereo not drawn)    -1.5
CCCCC(=O)O[C@]1(C(=O)CO)[C@@H](C)C[C@H]2[C@@H]3CCC4=CC(=O)C=C[C@]4(C)[C@@]3(F)[C@@H](O)C[C@@]21C    2.04

*Q* growth inhibition lookup needed for NC1CCN(c2c(F)cc3c(=O)c(C(=O)O)cn(C4CC4)c3c2Cl)C1 (stereo not drawn) , thanks.
*A* -0.254

*Q* Next: COc1cc2/c(=N/c3ccc(Br)cc3F)nc[nH]c2cc1OCC1CCN(C)CC1
*A* 0.39

*Q* Next: C#CCN[C@@H]1CCc2ccccc21
*A* 0.598

*Q* Next: CC(=O)Oc1ccccc1C(=O)Nc1ncc([N+](=O)[O-])s1
*A* 63.6

*Q* Next: C/C(O)=C(\C#N)C(=O)Nc1ccc(C(F)(F)F)cc1
*A* -15.3

*Q* Next: COC(=O)C1=CO[C@@H](O)[C@@H]2C(CO)=CC[C@H]12
*A* 1.32

*Q* Next: Clc1ccc2c(c1)CCc1cccnc1C2=C1CCNCC1
*A* 0.814

*Q* Next: CC(C)(C(=O)O)c1ccc(C(O)CCCN2CCC(C(O)(c3ccccc3)c3ccccc3)CC2)cc1 (stereo not drawn)
*A* -0.622

*Q* Next: CC(C)(Sc1cc(C(C)(C)C)c(O)c(C(C)(C)C)c1)Sc1cc(C(C)(C)C)c(O)c(C(C)(C)C)c1
*A* 1.85

*Q* Next: CCOC(=O)n1ccn(C)c1=S
*A* -16.1

*Q* Next: Cc1ccccc1N1C(=O)c2cc(S(N)(=O)=O)c(Cl)cc2NC1C (stereo not drawn)
*A* -0.324

*Q* Next: O=C1N=C(O)NC1(c1ccccc1)c1ccccc1
*A* -17.1

*Q* Next: CC(C)[C@H](N)C(=O)OCCOCn1cnc2c(=O)nc(N)[nH]c21
*A* 1.61

*Q* Next: COC(=O)C1=C(C)NC(C)=C(C(=O)OC)C1c1ccccc1[N+](=O)[O-]
*A* -0.486

*Q* Next: COc1ccccc1N1CCN(CC(O)COc2cccc3ccccc23)CC1 (stereo not drawn)
*A* -16

*Q* Next: CCCCC[C@H](O)/C=C/[C@H]1[C@H](O)CC(=O)[C@@H]1CCCCCCC(=O)O
*A* 0.878

*Q* Next: NC(Cc1cc(I)c(Oc2cc(I)c(O)c(I)c2)c(I)c1)C(=O)O (stereo not drawn)
*A* 4.24
